The measured values listed here are drawn from paper PMC7565984.

# experimentalTarget: T1, truncated importin α3 without the IBB domain (residues 64-521) (human, UniProt O00629 64-521)
# T1 construct: human importin α3 (KPNA4) without the IBB domain, residues 64-521; also called ΔImpα3; ΔImportin
# T1 sequence (looked up): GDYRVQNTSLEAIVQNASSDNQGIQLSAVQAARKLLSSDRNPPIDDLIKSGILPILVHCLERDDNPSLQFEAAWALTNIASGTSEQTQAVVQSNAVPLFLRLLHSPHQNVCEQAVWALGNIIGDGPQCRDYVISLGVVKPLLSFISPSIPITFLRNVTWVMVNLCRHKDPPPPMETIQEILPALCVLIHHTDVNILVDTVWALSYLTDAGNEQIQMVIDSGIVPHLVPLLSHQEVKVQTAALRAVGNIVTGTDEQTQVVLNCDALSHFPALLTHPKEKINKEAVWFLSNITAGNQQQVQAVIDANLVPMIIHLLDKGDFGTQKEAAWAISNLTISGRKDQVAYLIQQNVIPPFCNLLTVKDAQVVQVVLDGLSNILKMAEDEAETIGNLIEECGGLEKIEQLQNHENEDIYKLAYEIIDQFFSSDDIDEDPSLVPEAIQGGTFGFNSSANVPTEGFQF
# method: ITC; Impα3 or ΔImpα3 (10–20 μM) in the cell, NLS-NUPR1 peptide (150–300 μM) in the syringe; Tris 50 mM, pH 8; 298 K; single ligand binding site (1:1) model, n gives the fraction of binding-competent protein
# protocolConditions: both partners purified
Binary call on dH with cut-off -20 kcal/mol: strictly below means True, and equality or higher means False.

Solved entries:
INSERT INTO results (binder, grouplabel) VALUES
  ('Ac-YTNRPSPGGHERALVEALQNSE-NH2 (tyrosine introduced at the N terminus for absorbance measurements; not a residue of NUPR1; also called K65AT68EK69A peptide; triple mutant; source: synthetic peptide (NZYtech, purity 95%)) [NLS-NUPR1 peptide K65AT68EK69A]', 'True'),
  ('Ac-YTNRPSPGGHERALVTKLQNSE-NH2 (tyrosine introduced at the N terminus for absorbance measurements; not a residue of NUPR1; also called K65A peptide; Lys65Ala; source: synthetic peptide (NZYtech, purity 95%)) [NLS-NUPR1 peptide K65A]', 'False'),
  ('Ac-YTNRPSPGGHERKLVTALQNSE-NH2 (tyrosine introduced at the N terminus for absorbance measurements; not a residue of NUPR1; also called K69A peptide; Lys69Ala; source: synthetic peptide (NZYtech, purity 95%)) [NLS-NUPR1 peptide K69A]', 'True'),
  ('Ac-YTNRPSPGGHERALVEKLQNSE-NH2 (tyrosine introduced at the N terminus for absorbance measurements; not a residue of NUPR1; also called K65AT68E peptide; source: synthetic peptide (NZYtech, purity 95%)) [NLS-NUPR1 peptide K65AT68E]', 'False'),
  ('Ac-YTNRPSPGGHERKLVEKLQNSE-NH2 (tyrosine introduced at the N terminus for absorbance measurements; not a residue of NUPR1; also called T68E peptide; Thr68Glu; source: synthetic peptide (NZYtech, purity 95%)) [NLS-NUPR1 peptide T68E (phospho-mimetic)]', 'False'),
  ('Ac-YTNRPSPGGHERKLVTKLQNSE-NH2 (tyrosine introduced at the N terminus for absorbance measurements; not a residue of NUPR1; The added Tyr stands where NUPR1 has residue 53; also called wt; wt peptide; source: synthetic peptide (NZYtech, purity 95%)) [wild-type NLS-NUPR1 peptide (residues 54-74 of NUPR1 with an added N-terminal Tyr)]', 'False');

Continue with the binder presented below.
[Q] A record lists Ac-YTNRPSPGGHERKLVEALQNSE-NH2 (tyrosine introduced at the N terminus for absorbance measurements; not a residue of NUPR1; also called T68EK69A peptide; source: synthetic peptide (NZYtech, purity 95%)) [NLS-NUPR1 peptide T68EK69A] . Is its dH below -20 kcal/mol?
[A] True
